# System: patient having P.R.I.C.E. Syndrome
# assay_protocol: Example 1: case report of a patient with P.R.I.C.E. Syndrome, earlier medications then KAPVAY (plus inositol)
# assay_conditions: human, in vivo
quantity_name: side effects

>>> result("Clc1cccc(Cl)c1N=C1NCCN1")
"too sedative"
>>> result("CC(C)NCC(O)COc1cccc2ccccc12 (stereo not shown)")
"too sedative"
